Origin of measurements: the supplement of paper PMC5998384

- Tested on: HeLa Kyoto;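 note: HeLa Kyoto cells synchronized by double thymidine or nocodazole block, proteins quantified by TMT10plex mass spectrometry, three independent biological replicates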
- ASSAY REMARKS: melting temperature (median over replicates), in situ; higher = more thermally stable
- EXPERIMENTAL CONTEXT: cell cycle stage: G1/S
PROPERTY LABEL: melting temperature (°C)

- CHAIN SEQUENCE: "MKPLVVFVLGGPGAGKGTQCARIVEKYGYTHLSAGELLRDERKNPDSQYGELIEKYIKEGKIVPVEITISLLKREMDQTMAANAQKNKFLIDGFPRNQDNLQGWNKTMDGKADVSFVLFFDCNNEICIERCLERGKSSGRSDDNRESLEKRIQTYLQSTKPIIDLYEEMGKVKKIDASKSVDEVFDEVVQIFDKEG [CMPK1]"
  ASSAY SYSTEM: "HeLa Kyoto"
  PROPERTY LABEL: "melting temperature"
  EXPERIMENTAL VALUE: 51.1
- CHAIN SEQUENCE: "MAWRGWAQRGWGCGQAWGASVGGRSCEELTAVLTPPQLLGRRFNFFIQQKCGFRKAPRKVEPRRSDPGTSGEAYKRSALIPPVEETVFYPSPYPIRSLIKPLFFTVGFTGCAFGSAAIWQYESLKSRVQSYFDGIKADWLDSIRPQKEGDFRKEINKWWNNLSDGQRTVTGIIAANVLVFCLWRVPSLQRTMIRYFTSNPASKVLCSPMLLSTFSHFSLFHMAANMYVLWSFSSSIVNILGQEQFMAVYLSAGVISNFVSYVGKVATGRYGPSLGASGAIMTVLAAVCTKIPEGRLAIIFLPMFTFTAGNALKAIIAMDTAGMILGWKFFDHAAHLGGALFGIWYVTYGHELIWKNREPLVKIWHEIRTNGPKKGGGSK [PARL]"
  ASSAY SYSTEM: "HeLa Kyoto"
  PROPERTY LABEL: "melting temperature"
  EXPERIMENTAL VALUE: 54.9
- CHAIN SEQUENCE: "MGAVWSALLVGGGLAGALFVWLLRGGPGDTGKDGDAEQEKDAPLGGAAIPGGHQSGSSGLSPGPSGQELVTKPEHLQESNGHLISKTKDLGKLQAASWRLQNPSREVCDNSREHVPSGQFPDTEAPATSETSNSRSYSEVSRNESLESPMGEWGFQKGQEISAKAATCFAEKLPSSNLLKNRAKEEMSLSDLNSQDRVDHEEWEMVPRHSSWGDVGVGGSLKAPVLNLNQGMDNGRSTLVEARGQQVHGKMERVAVMPAGSQQVSVRFQVHYVTSTDVQFIAVTGDHECLGRWNTYIPLHYNKDGFWSHSIFLPADTVVEWKFVLVENGGVTRWEECSNRFLETGHEDKVVHAWWGIH [STBD1]"
  ASSAY SYSTEM: "HeLa Kyoto"
  PROPERTY LABEL: "melting temperature"
  EXPERIMENTAL VALUE: 50.7
- CHAIN SEQUENCE: "MNSSTSTMSEEPDALSVVNQLRDLAADPLNRRAIVQDQGCLPGLILFMDHPNPPVVHSALLALRYLAECRANREKMKGELGMMLSLQNVIQKTTTPGETKLLASEIYDILQSSNMADGDSFNEMNSRRRKAQFFLGTTNKRAKTVVLHIDGLDDTSRRNLCEEALLKIKGVISFTFQMAVQRCVVRIRSDLKAEALASAIASTKVMKAQQVVKSESGEEMLVPFQDTPVEVEQNTELPDYLPEDESPTKEQDKAVSRVGSHPEGGASWLSTAANFLSRSFYW [ARMC1]"
  ASSAY SYSTEM: "HeLa Kyoto"
  PROPERTY LABEL: "melting temperature"
  EXPERIMENTAL VALUE: 50.6
- CHAIN SEQUENCE: "MIPLLLAALLCVPAGALTCYGDSGQPVDWFVVYKLPALRGSGEAAQRGLQYKYLDESSGGWRDGRALINSPEGAVGRSLQPLYRSNTSQLAFLLYNDQPPQPSKAQDSSMRGHTKGVLLLDHDGGFWLVHSVPNFPPPASSAAYSWPHSACTYGQTLLCVSFPFAQFSKMGKQLTYTYPWVYNYQLEGIFAQEFPDLENVVKGHHVSQEPWNSSITLTSQAGAVFQSFAKFSKFGDDLYSGWLAAALGTNLQVQFWHKTVGILPSNCSDIWQVLNVNQIAFPGPAGPSFNSTEDHSKWCVSPKGPWTCVGDMNRNQGEEQRGGGTLCAQLPALWKAFQPLVKNYQPCNGMARKPSRAYKI [DNASE2]"
  ASSAY SYSTEM: "HeLa Kyoto"
  PROPERTY LABEL: "melting temperature"
  EXPERIMENTAL VALUE: 56.2
- CHAIN SEQUENCE: "MLARAARGTGALLLRGSLLASGRAPRRASSGLPRNTVVLFVPQQEAWVVERMGRFHRILEPGLNILIPVLDRIRYVQSLKEIVINVPEQSAVTLDNVTLQIDGVLYLRIMDPYKASYGVEDPEYAVTQLAQTTMRSELGKLSLDKVFRERESLNASIVDAINQAADCWGIRCLRYEIKDIHVPPRVKESMQMQVEAERRKRATVLESEGTRESAINVAEGKKQAQILASEAEKAEQINQAAGEASAVLAKAKAKAEAIRILAAALTQHNGDAAASLTVAEQYVSAFSKLAKDSNTILLPSNPGDVTSMVAQAMGVYGALTKAPVPGTPDSLSSGSSRDVQGTDASLDEELDRVKMS [STOML2]"
  ASSAY SYSTEM: "HeLa Kyoto"
  PROPERTY LABEL: "melting temperature"
  EXPERIMENTAL VALUE: 56.9
- CHAIN SEQUENCE: "MPLPVALQTRLAKRGILKHLEPEPEEEIIAEDYDDDPVDYEATRLEGLPPSWYKVFDPSCGLPYYWNADTDLVSWLSPHDPNSVVTKSAKKLRSSNADAEEKLDRSHDKSDRGHDKSDRSHEKLDRGHDKSDRGHDKSDRDRERGYDKVDRERERDRERDRDRGYDKADREEGKERRHHRREELAPYPKSKKAVSRKDEELDPMDPSSYSDAPRGTWSTGLPKRNEAKTGADTTAAGPLFQQRPYPSPGAVLRANAEASRTKQQD [PQBP1]"
  ASSAY SYSTEM: "HeLa Kyoto"
  PROPERTY LABEL: "melting temperature"
  EXPERIMENTAL VALUE: 58.2
- CHAIN SEQUENCE: "MSSKKAKTKTTKKRPQRATSNVFAMFDQSQIQEFKEAFNMIDQNRDGFIDKEDLHDMLASLGKNPTDAYLDAMMNEAPGPINFTMFLTMFGEKLNGTDPEDVIRNAFACFDEEATGTIQEDYLRELLTTMGDRFTDEEVDELYREAPIDKKGNFNYIEFTRILKHGAKDKDD [MYL12B]"
  ASSAY SYSTEM: "HeLa Kyoto"
  PROPERTY LABEL: "melting temperature"
  EXPERIMENTAL VALUE: 54
- CHAIN SEQUENCE: "MGPLPRTVELFYDVLSPYSWLGFEILCRYQNIWNINLQLRPSLITGIMKDSGNKPPGLLPRKGLYMANDLKLLRHHLQIPIHFPKDFLSVMLEKGSLSAMRFLTAVNLEHPEMLEKASRELWMRVWSRNEDITEPQSILAAAEKAGMSAEQAQGLLEKIATPKVKNQLKETTEAACRYGAFGLPITVAHVDGQTHMLFGSDRMELLAHLLGEKWMGPIPPAVNARL [GSTK1]"
  ASSAY SYSTEM: "HeLa Kyoto"
  PROPERTY LABEL: "melting temperature"
  EXPERIMENTAL VALUE: 50.9
- CHAIN SEQUENCE: "MAAVLKPVLLGLRDAPVHGSPTGPGAWTASKLGGIPDALPTVAAPRPVCQRCGQPLALVVQVYCPLEGSPFHRLLHVFACACPGCSTGGARSWKVFRSQCLQVPEREAQDAQKQGNSLAAEDWCEGADDWGSDTEEGPSPQFTLDFGNDASSAKDVDWTARLQDLRLQDAVLGAAHPVPPGLPLFLPYYICVADEDDYRDFVNLDHAHSLLRDYQQREGIAMDQLLSQSLPNDGDEKYEKTIIKSGDQTFYKFMKRIAACQEQILRYSWSGEPLFLTCPTSEVTELPACSQCGGQRIFEFQLMPALVSMLKSANLGLSVEFGTILVYTCEKSCWPPNHQTPMEEFCIIQEDPDELLFK [PDCD2L]"
  ASSAY SYSTEM: "HeLa Kyoto"
  PROPERTY LABEL: "melting temperature"
  EXPERIMENTAL VALUE: 48.9
